B1: ZNF649 (parent)
chain: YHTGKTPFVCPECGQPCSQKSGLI

Variants of: B1
Assay procedure: protein stability index of a GFP-peptide fusion (GPS, HEK-293T) (PSI 1-6); higher = more stable;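 further: lentivirally expressed fusions sorted by FACS into six bins by GFP to DsRed ratio, PSI derived from sequencing read proportions per bin multiplied by bin number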
Condition notes: c terminus: a fixed tail appended
Metric name: protein stability index

INSERT INTO measurements (mutation_string, data_value) VALUES
  ('P7N', 1.98),
  ('C13E', 2.87),
  ('T6S', 1.53),
  ('K20D', 1.72),
  ('P16F', 2.1),
  ('L23Q', 3.01),
  ('L23V', 2.58),
  ('Y1K', 2.72),
  ('F8K', 1.82),
  ('S18D', 2.25),
  ('L23T', 2.2),
  ('L23W', 1.16),
  ('T6V', 1.65),
  ('Q15T', 2.35),
  ('V9R', 2.24),
  ('K5E', 2.16),
  ('C10W', 2.79),
  ('F8I', 2.24),
  ('P7G', 2.05),
  ('F8E', 2.52),
  ('G14Q', 2.31),
  ('Y1I', 2.69);

Entry source: the supplement of paper PMC10567573
